Target: HigA (Streptococcus pneumoniae TIGR4, UniProt A0A0H2UQ20 1-97)
Assay: ITC; n=0.51; ITC: 50 mM MES pH 6.0, 100 mM NaCl, 25 C; […]
Settings: protein: recombinant; tags: pET-21a(+), stop codon in reverse primer; chain copies: 2; blunt
endpoint.name: Kd (nM)
Your answer is read as nM, so omit the unit and give the number.

[in] Assign Kd to the following record: Pal-II (dsDNA) DNA 1: AACTTAAAAGTATTTACAAACAATAACTTTTAGGTT DNA 2: AACCTAAAAGTTATTGTTTGTAAATACTTTTAAGTT
[out] 2530
